Target: T1, CMG2 38-218 (Homo sapiens), P58335
T1 chain: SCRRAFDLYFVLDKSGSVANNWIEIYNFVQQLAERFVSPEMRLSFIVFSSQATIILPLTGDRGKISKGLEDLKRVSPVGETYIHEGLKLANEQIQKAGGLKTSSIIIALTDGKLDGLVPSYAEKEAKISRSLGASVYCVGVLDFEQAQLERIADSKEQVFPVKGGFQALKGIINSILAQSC
Assay: sandwich ELISA (competition with His6-PA 488-735)
Conditions: modification not given

| binder | IC50 (µM) |
| --- | --- |
| CLRFT | 77.1 |
